- system name: gastrin receptors or type-B cholecystokinin (CCK-B) receptors (Oryctolagus cuniculus, UniProt P46627)
- Construct: Rabbit gastric mucous-membrane cells were prepared by conventional techniques; endogenous in cells; host or cells: freshly isolated rabbit gastric mucosal cells, enriched by elutriation to about 70% parietal cells
- Sequence (P46627 whole entry): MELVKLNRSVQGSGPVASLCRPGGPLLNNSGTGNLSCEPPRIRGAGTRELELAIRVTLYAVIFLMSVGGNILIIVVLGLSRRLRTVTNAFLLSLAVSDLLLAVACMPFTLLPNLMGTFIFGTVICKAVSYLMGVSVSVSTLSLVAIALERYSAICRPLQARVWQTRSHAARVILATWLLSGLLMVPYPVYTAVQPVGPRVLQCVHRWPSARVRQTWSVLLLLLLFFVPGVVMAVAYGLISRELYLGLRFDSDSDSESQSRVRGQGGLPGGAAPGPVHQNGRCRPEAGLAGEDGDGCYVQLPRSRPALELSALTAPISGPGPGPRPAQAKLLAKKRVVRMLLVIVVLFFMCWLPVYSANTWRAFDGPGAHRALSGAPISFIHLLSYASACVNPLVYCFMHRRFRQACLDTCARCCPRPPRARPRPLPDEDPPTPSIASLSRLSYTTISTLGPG
- experimental details: Inhibition of the gastrin-induced increase of cytosolic calcium in rabbit gastric mucous-membrane cells (Fura 2)
- Format: cell-based
- test parameters: binding values taken from Table 3
// criterion not met strictly below 4 in Ratio IC50 Binding cortex / IC50 (gastric mucous cells); criterion met otherwise

Before answering, review these 2 worked examples.
[[record]]
compound = "O=C(CC[C@@H](NC(=O)c1cc(Cl)cc(Cl)c1)C(=O)N1CCC2(CCCC2)CC1)N[C@H](Cc1ccccc1)C(=O)O [Compound 9]"
class = "criterion not met"

[[record]]
compound = "CN(Cc1ccccc1)C(=O)[C@@H](CCC(=O)O)NC(=O)CC[C@@H](NC(=O)c1cc(Cl)cc(Cl)c1)C(=O)N1CCC2(CCCC2)CC1 [Compound 38]"
class = "criterion met"


Determine whether measured Ratio IC50 Binding cortex / IC50 (gastric mucous cells) meets or exceeds 4 for O=C(CC[C@@H](NC(=O)c1cc(Cl)cc(Cl)c1)C(=O)N1CCC2(CCCC2)CC1)NC(CCc1ccccc1)C(=O)O (stereo partly drawn) [Compound 16] criterion not met

Hi team, for O=C(CC[C@@H](NC(=O)c1cc(Cl)cc(Cl)c1)C(=O)N1CCC2(CCCC2)CC1)Nc1ccc(C(=O)O)cc1 [Compound 47] , is the recorded Ratio IC50 Binding cortex / IC50 (gastric mucous cells) at or above 4? criterion met

Can O=C(CC[C@@H](NC(=O)c1cc(Cl)cc(Cl)c1)C(=O)N1CCC2(CCCC2)CC1)N[C@H](Cc1cccc2ccccc12)C(=O)O [Compound 25] be said to have Ratio IC50 Binding cortex / IC50 (gastric mucous cells) at or above 4? criterion met

Values were extracted from patent US5962502A.
